meta.source: patent US20030092759A1

- Tested on: restless legs syndrome (RLS)
- Assay Remarks: clinical case studies of patients with restless legs syndrome
- Format: in vivo, human
- Test Parameters: Example 2, person; used in the previous 15 years
Counter-ions that a name gives are not always drawn.
Measured Attribute: benefit in controlling the RLS, earlier treatment

{"Compound": "CCCC(C)(COC(N)=O)COC(=O)NC(C)C (stereo not drawn)", "Measurement": "some benefit"}
{"Compound": "CCN(CC)CCN1C(=O)CN=C(c2ccccc2F)c2cc(Cl)ccc21 [flurazepam HCl]", "Measurement": "some benefit"}
{"Compound": "C[C@@](Cc1ccc(O)c(O)c1)(NN)C(=O)O", "Measurement": "some benefit"}
